# System: NCI-H1048 cells
# testDescription: MTT proliferation assay, NCI-H1048;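 further: Dose-response in 96-well plates over 8 or 10 concentration points, with exposure spanning 3-4 cell doublings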
# Assay type: cell-based
# conditionInfo: 5 days compound exposure, 1:3 serial dilution starting at 10 μM
*1 amine or outer side, *2 acyl side, *3 side chain or, on linkers, in order; H or OH if unused. Where a SMILES comes first, the peptide text is derived from it. Bridges are numbered along the chain shown (N, C = ends). [ ]: non-standard residue; d: D form. The star is where a group is joined. X63 = CC(C)N1CCN(c2ccc(-c3ccc(Cl)cc3C[C@@H](C(=O)[*:2])N(C)[*:1])cc2F)CC1; X90 = CC(=O)N1CC=C(c2ccc(Cl)cc2C[C@@H](C(=O)[*:2])N(C)[*:1])CC1; X26 = CN([C@@H](Cc1cc(F)ccc1-c1cnn(C2CC2)c1)C(=O)[*:2])[*:1]; NMehhhLys(Me) = CN([C@@H](CCCCCCCN(C)[*:3])C(=O)[*:2])[*:1]; X168 = Cc1ncc(-c2ccc(Cl)cc2C[C@@H](C(=O)[*:2])N(C)[*:1])o1; cBuCO(3,3-F2-1-CF3) = O=C(C1(C(F)(F)F)CC(F)(F)C1)*; X4 = Cc1ccc(Cl)cc1C[C@@H](C(=O)[*:2])N(C)[*:1]; Pro(trans-4-F) = O=C(O)[C@@H]1C[C@@H](F)CN1; Gly(cPr) = N[C@H](C(=O)O)C1CC1; X129 = N#CC1(C(=O)*)CCC1
Hi there, I'd appreciate the recorded GI50 for every entry that follows.
Response body: numeric value in nM, unit text excluded.

Which GI50 value belongs to Cc1ccc(Cl)cc1C[C@H]1C(=O)N(C)CCCCCCC[C@H](N(C)C(=O)[C@@H](NC(=O)[C@@H]2C[C@@H](F)CN2C(=O)C2(C(F)(F)F)CC(F)(F)C2)C2CC2)C(=O)N[C@@H](CC(C)C)C(=O)N1C [Example 263] ({cBuCO(3,3-F2-1-CF3)}-[Pro(trans-4-F)][Gly(cPr)][NMehhhLys(Me)]L[X4]; lactam 3-C) ?
30

Any idea what GI50 was measured for Cc1ncc(-c2ccc(Cl)cc2C[C@H]2C(=O)N(C)CCCCCCC[C@H](N(C)C(=O)[C@@H](NC(=O)[C@@H]3C[C@@H](F)CN3C(=O)C3(C(F)(F)F)CC(F)(F)C3)C3CC3)C(=O)N[C@@H](CC(C)C)C(=O)N2C)o1 [Example 206] ({cBuCO(3,3-F2-1-CF3)}-[Pro(trans-4-F)][Gly(cPr)][NMehhhLys(Me)]L[X168]; lactam 3-C) ?
10

Quick check: GI50 of CC(C)C[C@@H]1NC(=O)[C@@H](N(C)C(=O)[C@@H](NC(=O)[C@@H]2C[C@@H](F)CN2C(=O)C2(C#N)CCC2)C2CC2)CCCCCCCN(C)C(=O)[C@H](Cc2cc(F)ccc2-c2cnn(C3CC3)c2)N(C)C1=O [Example 122] (X129-[Pro(trans-4-F)][Gly(cPr)][NMehhhLys(Me)]L[X26]; lactam 3-C) ?
50

Consider the compound shown here: Cc1nnc(-c2ccc(Cl)cc2C[C@H]2C(=O)N(C)CCCCC=CC[C@H](N(C)C(=O)[C@@H](NC(=O)[C@@H]3C[C@@H](F)CN3C(=O)C3(C(F)(F)F)CCC3)C3CC3)C(=O)N[C@@H](CC(C)C)C(=O)N2C)o1 What is its recorded GI50?
70

Item under review: CC(C)C[C@@H]1NC(=O)[C@@H](N(C)C(=O)[C@@H](NC(=O)[C@@H]2C[C@@H](F)CN2C(=O)C2(C(F)(F)F)CC(F)(F)C2)C2CC2)CCCCCCCN(C)C(=O)[C@H](Cc2cc(Cl)ccc2-c2ccc(N3CCN(C(C)C)CC3)c(F)c2)N(C)C1=O [Example 413] ({cBuCO(3,3-F2-1-CF3)}-[Pro(trans-4-F)][Gly(cPr)][NMehhhLys(Me)]L[X63]; lactam 3-C) . Reported GI50?
10

What value of measured GI50 is listed for CC(=O)N1CC=C(c2ccc(Cl)cc2C[C@H]2C(=O)N(C)CCCCCCC[C@H](N(C)C(=O)[C@@H](NC(=O)[C@@H]3C[C@@H](F)CN3C(=O)C3(C(F)(F)F)CC(F)(F)C3)C3CC3)C(=O)N[C@@H](CC(C)C)C(=O)N2C)CC1 [Example 50] ({cBuCO(3,3-F2-1-CF3)}-[Pro(trans-4-F)][Gly(cPr)][NMehhhLys(Me)]L[X90]; lactam 3-C) ?
10

---

# studySystem: CyclinE1/CDK2 (Homo sapiens)
# Construct: purchased Eurofins, discovery 14-475
# testDescription: Fluorescence Polarization (FP) competitive binding assay, Cyclin E1/Cdk2;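 further: readings taken after two-hour equilibration at room temperature in HEPES buffer with NaCl, DTT, NP-40 and BSA, IC50 fitted from eight-concentration serial dilution series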
# conditionInfo: 10 nM Cyclin E1/Cdk2, 2 nM FAM probe; average of 2-3 independent experiments; read-out: Cyclin E FP IC50
*1 amine or outer side, *2 acyl side, *3 side chain or, on linkers, in order; H or OH if unused. Where a SMILES comes first, the peptide text is derived from it. Bridges are numbered along the chain shown (N, C = ends). [ ]: non-standard residue; d: D form. The star is where a group is joined. X42 = CN([C@@H](Cc1cc(Cl)ccc1-c1cnn(S(=O)(=O)C2CC2)c1)C(=O)[*:2])[*:1]; X149 = CN([C@@H](Cc1cc(Cl)ccc1-c1ccnc(N2CCOCC2)c1F)C(=O)[*:2])[*:1]; X68 = CN([C@@H](Cc1cc(Cl)ccc1-c1cnn(C2CC2)c1)C(=O)[*:2])[*:1]; NMehhhLys(Me) = CN([C@@H](CCCCCCCN(C)[*:3])C(=O)[*:2])[*:1]; X44 = Cc1nnc(-c2ccc(Cl)cc2C[C@@H](C(=O)[*:2])N(C)[*:1])o1; NMe(hhhLys) = CN([C@@H](CCCCCCCN[*:3])C(=O)[*:2])[*:1]; cBuCO(3,3-F2-1-CF3) = O=C(C1(C(F)(F)F)CC(F)(F)C1)*; Pro(trans-4-F) = O=C(O)[C@@H]1C[C@@H](F)CN1; Gly(cPr) = N[C@H](C(=O)O)C1CC1
Binarize IC50 at 0.3 µM; below is rule met, at or above is rule not met.

Is IC50 strictly under 0.3 µM for the entry CC(=O)N1C2CCC1CC(c1ccc(F)cc1C[C@H]1C(=O)N(C)CCCCCCC[C@H](N(C)C(=O)[C@@H](NC(=O)[C@@H]3C[C@@H](F)CN3C(=O)C3(C(F)(F)F)CC(F)(F)C3)C3CC3)C(=O)N[C@@H](CC(C)C)C(=O)N1C)C2 (single isomer, unassigned) [Example 59-P1] ?
rule not met

Confirm or reject: IC50 of CC(C)C[C@@H]1NC(=O)[C@@H](N(C)C(=O)[C@@H](NC(=O)[C@@H]2C[C@@H](F)CN2C(=O)C2(C(F)(F)F)CC(F)(F)C2)C2CC2)CCCCCCCN(C)C(=O)[C@H](Cc2cc(Cl)ccc2-c2cnn(S(=O)(=O)C3CC3)c2)N(C)C1=O [Example 254] ({cBuCO(3,3-F2-1-CF3)}-[Pro(trans-4-F)][Gly(cPr)][NMehhhLys(Me)]L[X42]; lactam 3-C) lies strictly below 0.3 µM
rule not met

Please state whether IC50 is below 0.3 µM for CC(C)C[C@@H]1NC(=O)[C@@H](N(C)C(=O)[C@@H](NC(=O)[C@@H]2C[C@@H](F)CN2C(=O)C2(C(F)(F)F)CC(F)(F)C2)C2CC2)CC=CCCCCNC(=O)[C@H](Cc2cc(Cl)ccc2C2=CC[C@H](O)CC2)N(C)C1=O
rule not met

I'd appreciate it if you could check whether CC(C)C[C@@H]1NC(=O)[C@@H](N(C)C(=O)[C@@H](NC(=O)[C@@H]2C[C@@H](F)CN2C(=O)C2(C(F)(F)F)CC(F)(F)C2)C2CC2)CCCCCCCN(C)C(=O)[C@H](Cc2cc(Cl)ccc2-c2ccnc(N3CCOCC3)c2F)N(C)C1=O [Example 349] ({cBuCO(3,3-F2-1-CF3)}-[Pro(trans-4-F)][Gly(cPr)][NMehhhLys(Me)]L[X149]; lactam 3-C) has IC50 smaller than 0.3 µM.
rule met

Consider Cc1nnc(-c2ccc(Cl)cc2C[C@H]2C(=O)NCCCCCCC[C@H](N(C)C(=O)[C@@H](NC(=O)[C@@H]3C[C@@H](F)CN3C(=O)C3(C(F)(F)F)CC(F)(F)C3)C3CC3)C(=O)N[C@@H](CC(C)C)C(=O)N2C)o1 [Example 160] ({cBuCO(3,3-F2-1-CF3)}-[Pro(trans-4-F)][Gly(cPr)][NMe(hhhLys)]L[X44]; lactam 3-C) . Does its IC50 lie strictly below 0.3 µM?
rule met

Dear colleague, could you confirm whether IC50 of CC(C)C[C@@H]1NC(=O)[C@@H](N(C)C(=O)[C@@H](NC(=O)[C@@H]2C[C@@H](F)CN2C(=O)C2(C(F)(F)F)CC(F)(F)C2)C2CC2)CCCCCCCN(C)C(=O)[C@H](Cc2cc(Cl)ccc2-c2cnn(C3CC3)c2)N(C)C1=O [Example 110] ({cBuCO(3,3-F2-1-CF3)}-[Pro(trans-4-F)][Gly(cPr)][NMehhhLys(Me)]L[X68]; lactam 3-C) falls below 0.3 µM? Thanks.
rule not met
